- Study system: GDP-bound KRAS wild-type protein (Homo sapiens)
- Sequence (P01116 whole entry): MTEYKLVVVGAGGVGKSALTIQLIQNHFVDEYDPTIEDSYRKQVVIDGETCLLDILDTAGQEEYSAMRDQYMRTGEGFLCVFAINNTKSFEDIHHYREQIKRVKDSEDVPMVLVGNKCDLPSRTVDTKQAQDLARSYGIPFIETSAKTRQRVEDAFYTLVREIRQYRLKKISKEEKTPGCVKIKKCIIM
- Assay method text: Binding to KRAS by surface plasmon resonance (SPR), Single Cycle Kinetics
- Measurement context: SPR, Single Cycle Kinetics, 1:1 binding model; GDP-bound KRAS wild-type protein; read-out: KRAS KD
So I've got a bunch of compounds here, and I need their Kd values.
Give just the numeric value; nM need not be written.

Query block: Quick one: Kd for CCCCCC[C@H]1C(=O)N[C@@H]([C@@H](C)CC)C(=O)N(C)CC(=O)N(C)[C@H]2C/C=C\CCN(C2=O)[C@@H](Cc2ccc(C(F)(F)F)cc2)C(=O)N(C)CC(=O)N[C@@H](CCc2ccc3sccc3c2)C(=O)N2C[C@H](OCC)C[C@H]2C(=O)NC2(CCC2)C(=O)N(C)[C@@H](C2CCCC2)C(=O)N(C)[C@H](C(=O)N(C)C)CC(=O)N1C [PP1259] ?
Result block: 0.49

Query block: Item CC[C@H](C)[C@@H]1NC(=O)[C@H](CC)N(C)C(=O)C[C@@H](C(=O)N2CCOCC2)N(C)C(=O)[C@H](C2CCCC2)N(C)C(=O)C2(CCC2)NC(=O)[C@@H]2CCCN2C(=O)[C@H](CCc2cc(F)c(C(F)(F)F)c(F)c2)NC(=O)CN(C)C(=O)[C@H](Cc2ccc(C(F)(F)F)cc2)N2C[C@H](C)[C@H](C)C[C@@H](C2=O)N(C)C(=O)CN(C)C1=O [PP1366] has what recorded Kd?
Result block: 0.11

Query block: # input compound: CCO[C@@H]1C[C@H]2C(=O)NC3(CCC3)C(=O)N(C)[C@@H](C3CCCC3)C(=O)N(C)[C@H](C(=O)N3CCCC3)CC(=O)N(C)[C@@H](CC(C)C)C(=O)N[C@@H]([C@@H](C)CC)C(=O)N(C)CC(=O)N(C)[C@H]3C/C=C\CCN(C3=O)[C@@H](Cc3ccc(C)cc3)C(=O)N(C)CC(=O)N[C@@H](CCc3cc(F)c(C(F)(F)F)c(F)c3)C(=O)N2C1 [PP1416] ; wanted: its Kd
Result block: 0.17

Query block: Any idea what its Kd is? The compound is CC[C@H](C)[C@@H]1NC(=O)[C@H](CC2CC2)N(C)C(=O)C[C@@H](C(=O)N(C)CC)N(C)C(=O)[C@H](C2CCCC2)N(C)C(=O)C2(CC(C)(C)C2)NC(=O)[C@@H]2C[C@@H](F)CN2C(=O)[C@H](CCc2cc(F)c(C(F)(F)F)c(F)c2)NC(=O)CN(C)C(=O)[C@H](Cc2ccc(C(F)(F)F)cc2)N2CC/C=C\C[C@@H](C2=O)N(C)C(=O)CN(C)C1=O [PP1570]
Result block: 0.051

Query block: Entry CCC[C@H]1C(=O)N[C@@H]([C@@H](C)CC)C(=O)N(C)CC(=O)N(C)[C@H]2C/C=C\CCN(C2=O)[C@@H](Cc2ccc(C(F)(F)F)cc2)C(=O)N(C)CC(=O)N[C@@H](CCc2ccc3sccc3c2)C(=O)N2C[C@H](OCC)C[C@H]2C(=O)NC2(CCC2)C(=O)N(C)[C@@H](C2CCCC2)C(=O)N(C)[C@H](C(=O)N(C)C)CC(=O)N1C [PP1256] has what Kd?
Result block: 0.36

Query block: // lookup Kd for CC[C@H](C)[C@@H]1NC(=O)[C@H](CC2CC2)N(C)C(=O)C[C@@H](C)N(C)C(=O)[C@H](C2CCCC2)N(C)C(=O)C2(CCC2)NC(=O)[C@H](CC(F)F)N(C)C(=O)[C@H](CCc2cc(F)c(C(F)(F)F)c(F)c2)NC(=O)CN(C)C(=O)[C@H](Cc2ccc(C(F)(F)F)cc2)N2CC/C=C\C[C@@H](C2=O)N(C)C(=O)CN(C)C1=O [PP1405]
Result block: 8.5
